The origin of these recorded values is patent EP0831769B2.

- Tested on: Skin-2 model ZK1301
- procedure_details: Skin-2 model: mRNA expression by RT-PCR, semi-quantitative;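 further: Three-dimensional human skin equivalent of dermal fibroblasts and foreskin keratinocytes at an air-liquid interface, exposed for 10 or 48 h, mRNA measured in total RNA by RT-PCR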
- measurement_conditions: Table 3, Skin-2 model, 1 µM; transcriptional response score
Items are presented alongside their recorded scce.

Below, 4 compounds whose answers are already recorded.
Task: Please tell me the measured scce for "N[C@@H](Cc1cc(I)c(Oc2ccc(O)c(I)c2)c(I)c1)C(=O)O" ; system: Skin-2 model ZK1301.
Output: 0.5

Task: Report scce on Skin-2 model ZK1301 for this entry: "Cc1cc(C[C@H](N)C(=O)O)cc(C)c1Oc1ccc(O)c(C(C)C)c1"
Output: -1

Task: Report value only: scce, Skin-2 model ZK1301, "O=C(O)c1cc(I)c(Oc2ccc(O)c(I)c2)c(I)c1"
Output: 0.5

Task: Retrieve scce on Skin-2 model ZK1301; query "N[C@@H](Cc1cc(I)c(Oc2cc(I)c(O)c(I)c2)c(I)c1)C(=O)O"
Output: 0

Proceeding to the next compound to report its scce.
Task: State the measured scce (Skin-2 model ZK1301) of "Cc1cc(NC(=O)C(=O)O)cc(C)c1Oc1ccc(O)c(C(C)C)c1"
Output: -1
